target: Human Trypsin; assay: Enzyme selectivity evaluation test: trypsin; format: biochemical
pIC50: −log10 of the molar value.
Quantity measured: pIC50

query: Given the entry Cl.N[C@H](CF)[C@H]1CC[C@H](C(=O)N2CC[C@@H](C3CCCCC3)[C@H]2C(=O)Nc2ccc3[nH]c(C(=O)O)cc3c2)CC1 [Reference Example 2-6, hydrochloride] , report its measured pIC50.
result: < 5.00

====

target: Tissue Factor (TF):Factor VIIa (FVIIa) Complex (Homo sapiens, UniProt P08709); construct: Human FVIIa (manufactured by Enzyme Research Laboratories); R&D Systems, Inc. (TF); assay: Enzyme selectivity evaluation test: TF:FVIIa complex
Sequence (P08709 213-466 limits assumed): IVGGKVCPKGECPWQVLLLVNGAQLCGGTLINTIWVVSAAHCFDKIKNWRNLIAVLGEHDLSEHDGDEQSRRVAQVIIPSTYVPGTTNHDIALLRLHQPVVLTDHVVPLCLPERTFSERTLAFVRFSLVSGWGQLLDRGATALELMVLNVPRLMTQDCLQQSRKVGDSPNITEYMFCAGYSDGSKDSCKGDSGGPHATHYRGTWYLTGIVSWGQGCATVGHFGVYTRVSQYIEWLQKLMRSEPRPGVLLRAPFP
Sequence (P08709 61-212 partner limits assumed): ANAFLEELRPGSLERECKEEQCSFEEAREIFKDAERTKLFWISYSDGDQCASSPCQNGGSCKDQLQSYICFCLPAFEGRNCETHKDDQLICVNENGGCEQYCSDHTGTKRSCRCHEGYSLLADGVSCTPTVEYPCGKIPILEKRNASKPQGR
Sequence (P13726 33-251 partner limits assumed): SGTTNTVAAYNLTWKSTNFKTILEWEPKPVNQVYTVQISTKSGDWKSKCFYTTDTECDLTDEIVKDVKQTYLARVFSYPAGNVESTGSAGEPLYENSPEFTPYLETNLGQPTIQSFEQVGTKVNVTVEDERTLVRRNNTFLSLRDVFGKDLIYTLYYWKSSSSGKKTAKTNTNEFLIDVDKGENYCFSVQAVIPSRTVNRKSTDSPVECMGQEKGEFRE
pIC50: −log10 of the molar value.
Quantity measured: pIC50

query: Given the entry Cl.N[C@H](CF)[C@H]1CC[C@H](C(=O)N2CC[C@@H](C3CCCCC3)[C@H]2C(=O)Nc2ccc3[nH]c(C(=O)O)cc3c2)CC1 [Reference Example 2-6, hydrochloride] , report its measured pIC50.
result: < 5.00

====

pIC50: −log10 of the molar value.
Quantity measured: pIC50

query: Query the reported pIC50 for Human urokinase (Homo sapiens); item: Cl.N[C@H](CF)[C@H]1CC[C@H](C(=O)N2CC[C@@H](C3CCCCC3)[C@H]2C(=O)Nc2ccc3[nH]c(C(=O)O)cc3c2)CC1 [Reference Example 2-6, hydrochloride]
result: < 5.00

====

experiment: Ester metabolism stability test: stability in human liver; format: in vitro ADME; details: 37° C., 20 minutes, with NADPH
Could you please report measured Residual rate (%) Human liver S9 for the items listed next?
Give the value in % but do not write % after it.

query: Given the entry `Cl.N[C@H](CF)[C@H]1CC[C@H](C(=O)N2CC[C@@H](C3CCCCC3)[C@H]2C(=O)Nc2ccc3c(c2)cc2n3C(CF)(CF)OC2=O)CC1` , report its measured Residual rate (%) Human liver S9.
result: 67

query: Given the entry `Cl.NC[C@H]1CC[C@H](C(=O)N2CC[C@@H](C3CCCCC3)[C@H]2C(=O)Nc2ccc3c(c2)cc2n3C(CF)(CF)OC2=O)CC1` , report its measured Residual rate (%) Human liver S9.
result: 78

query: Given the entry `CO[C@H]1CC[C@H]([C@@H]2CCN(C(=O)[C@H]3CC[C@H]([C@H](N)CF)CC3)[C@@H]2C(=O)Nc2ccc3c(c2)cc2n3C(C)(C)OC2=O)CC1.Cl` , report its measured Residual rate (%) Human liver S9.
result: 98

query: Given the entry `Cl.N[C@H](CF)[C@H]1CC[C@H](C(=O)N2CC[C@@H](C3CCCCC3)[C@H]2C(=O)Nc2ccc3c(c2)cc2n3C3(CCC3)OC2=O)CC1` , report its measured Residual rate (%) Human liver S9.
result: 71

query: Given the entry `CC1(C)OC(=O)c2cc3cc(NC(=O)[C@@H]4[C@H](C5CCCCC5)CCN4C(=O)[C@H]4CC[C@H]([C@H](N)CF)CC4)ccc3n21.Cl` , report its measured Residual rate (%) Human liver S9.
result: 87

====

molecular target: UniProtKB P00742
Sequence (P00742 235-488 limits assumed): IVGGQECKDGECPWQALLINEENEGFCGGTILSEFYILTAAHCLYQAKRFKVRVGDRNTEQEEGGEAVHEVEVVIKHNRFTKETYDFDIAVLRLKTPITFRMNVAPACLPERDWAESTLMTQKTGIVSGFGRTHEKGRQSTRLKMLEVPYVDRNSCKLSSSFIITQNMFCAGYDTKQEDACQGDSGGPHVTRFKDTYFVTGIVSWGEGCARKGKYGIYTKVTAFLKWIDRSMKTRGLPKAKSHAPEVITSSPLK
Sequence (P00742 41-179 partner limits assumed): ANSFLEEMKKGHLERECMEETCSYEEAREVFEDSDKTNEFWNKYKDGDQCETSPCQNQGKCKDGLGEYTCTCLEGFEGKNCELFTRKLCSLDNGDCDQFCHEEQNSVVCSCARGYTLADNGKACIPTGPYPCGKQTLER
Quantity measured: IC50

query: Given the entry Cl.N[C@H](CF)[C@H]1CC[C@H](C(=O)N2CC[C@@H](C3CCCCC3)[C@H]2C(=O)Nc2ccc3[nH]c(C(=O)O)cc3c2)CC1 [Reference Example 2-6, hydrochloride] , report its measured IC50.
result: > 10 µM

====

molecular target: UniProt P03951; assay: In vitro activated factor XI (FXIa) inhibition test; type: biochemical; parameters: purchased Enzyme Research Laboratories; conditions: substrate S-2366, 37° C., 10 minutes; read-out: FXIa Inhibition activity IC50
Sequence (P03951 388-625 limits assumed): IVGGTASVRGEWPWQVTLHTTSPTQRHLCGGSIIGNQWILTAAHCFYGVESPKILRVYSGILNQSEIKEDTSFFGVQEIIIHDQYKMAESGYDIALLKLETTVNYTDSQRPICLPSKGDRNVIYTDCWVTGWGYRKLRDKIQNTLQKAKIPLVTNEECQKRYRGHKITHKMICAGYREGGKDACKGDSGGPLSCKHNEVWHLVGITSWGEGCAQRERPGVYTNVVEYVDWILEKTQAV
Sequence (P03951 19-387 partner limits assumed): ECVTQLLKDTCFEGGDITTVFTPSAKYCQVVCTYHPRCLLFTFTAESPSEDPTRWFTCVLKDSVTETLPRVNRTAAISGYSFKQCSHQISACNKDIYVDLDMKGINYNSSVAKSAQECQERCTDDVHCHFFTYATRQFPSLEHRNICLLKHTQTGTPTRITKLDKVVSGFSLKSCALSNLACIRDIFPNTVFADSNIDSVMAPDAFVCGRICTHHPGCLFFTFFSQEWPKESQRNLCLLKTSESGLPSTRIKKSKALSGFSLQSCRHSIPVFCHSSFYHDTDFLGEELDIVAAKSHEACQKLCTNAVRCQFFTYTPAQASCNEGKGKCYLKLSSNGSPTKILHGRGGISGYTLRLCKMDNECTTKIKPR
Quantity measured: IC50 (nM)
Give the value in nM but do not write nM after it.

query: Query the reported IC50 for UniProt P03951; item: Cl.N[C@H](CF)[C@H]1CC[C@H](C(=O)N2CC[C@@H](C3CCCCC3)[C@H]2C(=O)Nc2ccc3[nH]c(C(=O)O)cc3c2)CC1 [Reference Example 2-6, hydrochloride]
result: 6

query: Query the reported IC50 for UniProt P03951; item: CCc1c(C(=O)O)[nH]c2ccc(NC(=O)[C@@H]3[C@H](C4CCCCC4)CCN3C(=O)[C@H]3CC[C@H]([C@H](N)CF)CC3)cc12 [Reference Example 42]
result: 91

query: Query the reported IC50 for UniProt P03951; item: `N[C@H](CF)[C@H]1CC[C@H](C(=O)N2CC[C@@H](N3CCCCC3)[C@H]2C(=O)Nc2ccc3[nH]c(C(=O)O)cc3c2)CC1`
result: 19

====

biological target: Human plasmin (Homo sapiens, UniProt P00747)
Sequence (P00747 581-810 limits assumed): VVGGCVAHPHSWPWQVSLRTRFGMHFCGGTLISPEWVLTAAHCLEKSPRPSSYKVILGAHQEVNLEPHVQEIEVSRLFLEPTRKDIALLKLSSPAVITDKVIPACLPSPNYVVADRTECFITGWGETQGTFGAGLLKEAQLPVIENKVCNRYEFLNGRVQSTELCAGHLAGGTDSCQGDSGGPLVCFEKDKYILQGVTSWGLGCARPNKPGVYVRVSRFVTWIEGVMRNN
Sequence (P00747 97-580 partner limits assumed): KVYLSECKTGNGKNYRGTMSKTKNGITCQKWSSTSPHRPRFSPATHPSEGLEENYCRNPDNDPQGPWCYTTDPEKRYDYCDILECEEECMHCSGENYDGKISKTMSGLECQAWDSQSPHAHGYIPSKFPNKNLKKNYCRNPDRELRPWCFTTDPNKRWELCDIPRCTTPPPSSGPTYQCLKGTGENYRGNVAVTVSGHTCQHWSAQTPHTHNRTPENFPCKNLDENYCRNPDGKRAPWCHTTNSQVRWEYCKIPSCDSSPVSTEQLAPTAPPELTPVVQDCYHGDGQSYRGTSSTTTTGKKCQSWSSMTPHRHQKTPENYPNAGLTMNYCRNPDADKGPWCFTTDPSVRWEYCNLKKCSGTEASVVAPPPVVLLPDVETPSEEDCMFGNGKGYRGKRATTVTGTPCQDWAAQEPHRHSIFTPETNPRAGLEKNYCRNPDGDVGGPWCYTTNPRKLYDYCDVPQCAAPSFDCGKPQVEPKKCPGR
Quantity measured: IC50

query: Given the entry Cl.N[C@H](CF)[C@H]1CC[C@H](C(=O)N2CC[C@@H](C3CCCCC3)[C@H]2C(=O)Nc2ccc3[nH]c(C(=O)O)cc3c2)CC1 [Reference Example 2-6, hydrochloride] , report its measured IC50.
result: > 10 µM

====

molecular target: UniProtKB P03951; assay: In vitro activated factor XI (FXIa) inhibition test; assay type: biochemical; parameters: purchased Enzyme Research Laboratories
Quantity measured: pIC50
Scale explanation: pIC50 corresponds to minus log10 of a concentration expressed in moles per litre.

query: Given the entry `N[C@H](CF)[C@H]1CC[C@H](C(=O)N2CC[C@@H](C3CCCCC3)[C@H]2C(=O)Nc2ccc3[nH]c(C(=O)O)c(Cl)c3c2)CC1` , report its measured pIC50.
result: 7.74

====

target: UniProt P03951; assay: In vitro activated factor XI (FXIa) inhibition test; assay type: biochemical; parameters: purchased Enzyme Research Laboratories; details: substrate S-2366, 37° C., 10 minutes; read-out: FXIa Inhibition activity IC50
Quantity measured: pIC50
Scale explanation: pIC50 corresponds to minus log10 of a concentration expressed in moles per litre.

query: Given the entry NC(CF)[C@H]1CC[C@H](C(=O)N2CC[C@@H](C3CCCCC3)[C@H]2C(=O)Nc2ccc3[nH]c(C(=O)O)c(F)c3c2)CC1 (some centres unmarked) [Reference Example 36] , report its measured pIC50.
result: 7.35

query: Given the entry `COc1ccc([C@H]2CCN(C(=O)[C@H]3CC[C@H]([C@H](N)CF)CC3)[C@@H]2C(=O)Nc2ccc3[nH]c(C(=O)O)cc3c2)cc1` , report its measured pIC50.
result: 7.12

query: Given the entry NC(CF)[C@H]1CC[C@H](C(=O)N2CC[C@@H](c3ccc(F)cc3)[C@H]2C(=O)Nc2ccc3[nH]c(C(=O)O)cc3c2)CC1 (some centres unmarked) , report its measured pIC50.
result: 7.52

query: Given the entry `NC[C@H]1CC[C@H](C(=O)N2CC[C@@H](c3ccccc3)[C@H]2C(=O)Nc2ccc3[nH]c(C(=O)O)cc3c2)CC1` , report its measured pIC50.
result: 8.05

query: Given the entry `NC[C@H]1CC[C@H](C(=O)N2CC[C@@H](C3CCCCC3)[C@H]2C(=O)Nc2ccc3[nH]c(C(=O)O)cc3c2)CC1` , report its measured pIC50.
result: 8.52

query: Given the entry `N[C@H](CF)[C@H]1CC[C@H](C(=O)N2CC[C@H](c3ccccc3)[C@H]2C(=O)Nc2ccc3[nH]c(C(=O)O)c(Cl)c3c2)CC1` , report its measured pIC50.
result: 7.22

query: Given the entry `N[C@H](CF)[C@H]1CC[C@H](C(=O)N2CC[C@H](c3ccc(F)cc3)[C@H]2C(=O)Nc2ccc3[nH]c(C(=O)O)cc3c2)CC1` , report its measured pIC50.
result: 7.48

query: Given the entry `Cc1c(C(=O)O)[nH]c2ccc(NC(=O)[C@@H]3[C@H](C4CCCCC4)CCN3C(=O)[C@H]3CC[C@H]([C@H](N)CF)CC3)cc12` , report its measured pIC50.
result: 6.84

====

molecular target: Human FXIIa (Homo sapiens)
Sequence (P00748 373-615 limits assumed): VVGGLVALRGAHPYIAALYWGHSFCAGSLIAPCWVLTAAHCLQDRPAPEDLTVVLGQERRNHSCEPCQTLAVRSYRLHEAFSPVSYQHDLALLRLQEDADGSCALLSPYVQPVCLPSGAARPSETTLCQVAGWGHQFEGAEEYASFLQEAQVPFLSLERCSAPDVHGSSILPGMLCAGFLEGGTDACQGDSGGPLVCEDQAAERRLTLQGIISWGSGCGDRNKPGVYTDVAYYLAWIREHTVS
Sequence (P00748 20-372 partner limits assumed): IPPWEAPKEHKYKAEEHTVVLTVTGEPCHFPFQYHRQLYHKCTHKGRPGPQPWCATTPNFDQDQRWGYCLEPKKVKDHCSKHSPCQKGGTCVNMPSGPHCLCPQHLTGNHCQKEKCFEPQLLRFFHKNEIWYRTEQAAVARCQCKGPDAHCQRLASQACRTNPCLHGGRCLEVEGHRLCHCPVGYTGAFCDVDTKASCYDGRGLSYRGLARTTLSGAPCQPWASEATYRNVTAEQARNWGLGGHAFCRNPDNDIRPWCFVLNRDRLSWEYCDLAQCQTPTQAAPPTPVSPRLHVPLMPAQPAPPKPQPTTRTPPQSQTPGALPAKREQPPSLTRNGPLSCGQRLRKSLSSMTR
pIC50: −log10 of the molar value.
Quantity measured: pIC50

query: Query the reported pIC50 for Human FXIIa (Homo sapiens); item: Cl.N[C@H](CF)[C@H]1CC[C@H](C(=O)N2CC[C@@H](C3CCCCC3)[C@H]2C(=O)Nc2ccc3[nH]c(C(=O)O)cc3c2)CC1 [Reference Example 2-6, hydrochloride]
result: < 5.00

====

test: Ester metabolism stability test: stability in human liver; format: in vitro ADME; settings: 37° C., 20 minutes, with NADPH
Quantity measured: Residual rate (%) Human liver S9
Give the value in % but do not write % after it.

query: Given the entry CC1(C)OC(=O)c2cc3cc(NC(=O)[C@@H]4[C@H](N5CCCCC5)CCN4C(=O)[C@H]4CC[C@H]([C@H](N)CF)CC4)ccc3n21 [Example 15] , report its measured Residual rate (%) Human liver S9.
result: 82

query: Given the entry CC1(C)OC(=O)c2cc3cc(NC(=O)[C@@H]4[C@H](c5ccccc5)CCN4C(=O)[C@H]4CC[C@H]([C@H](N)CF)CC4)ccc3n21.Cl [Example 19] , report its measured Residual rate (%) Human liver S9.
result: 93

query: Given the entry CO[C@H]1CC[C@H]([C@@H]2CCN(C(=O)[C@H]3CC[C@H]([C@H](N)CF)CC3)[C@@H]2C(=O)Nc2ccc3c(c2)cc2n3C(CF)(CF)OC2=O)CC1 [Example 13] , report its measured Residual rate (%) Human liver S9.
result: 69

query: Given the entry CO[C@H]1CC[C@H]([C@@H]2CCN(C(=O)[C@H]3CC[C@H]([C@H](N)CF)CC3)[C@@H]2C(=O)Nc2ccc3c(c2)cc2n3C3(CCC3)OC2=O)CC1 [Example 14] , report its measured Residual rate (%) Human liver S9.
result: 47

query: Given the entry CC1(C)OC(=O)c2cc3cc(NC(=O)[C@@H]4[C@@H](c5ccccc5)CCN4C(=O)[C@H]4CC[C@H]([C@H](N)CF)CC4)ccc3n21.Cl [Example 20] , report its measured Residual rate (%) Human liver S9.
result: 93
